# procedure text: Stability test in plasma
# Type: in vitro ADME
# assay conditions: Rat plasma; 37° C.; 5 mM
Rule: Residue % (180 minutes elapsed), Mean of 50% or more gives t; anything lower gives f.

Asked: Reported Residue % (180 minutes elapsed), Mean reaches at least 50% for CCOC(=O)Cn1c(Cl)c(/C=N/NC(=O)c2cc3cc(C)ccc3o2)c2ccccc21 [Example 3] ?
Given back: f

Asked: # bool: Residue % (180 minutes elapsed), Mean of CCOCCn1c(Cl)c(/C=N/NC(=O)c2cc3cc(C)ccc3o2)c2ccccc21 [Example 4] >= 50%
Given back: t

Asked: Given the entry Cc1ccc2oc(C(=O)N/N=C/c3c(Cl)n(C)c4ccccc34)cc2c1 [Example 2] , answer whether its Residue % (180 minutes elapsed), Mean meets or surpasses 50%.
Given back: t

Asked: Quick check: does CCN(CC)CCOC(=O)c1ccc(N)cc1 [Procaine, procaine, reference compound] have Residue % (180 minutes elapsed), Mean greater than or equal to 50%?
Given back: f

Asked: Decide: Residue % (180 minutes elapsed), Mean of CCOCCn1c(Cl)c(/C=N/NC(=O)c2cc3cc(OC)ccc3o2)c2cc(OC)ccc21 [Example 15] >= 50%?
Given back: f

---

# procedure text: Metabolic stability test in liver microsomes
# Type: in vitro ADME
# assay conditions: Rat; −NADPH; 0.5 mg protein/mL; 37° C.
quantity name: Residue (%) after culturing for 30 min
Numeric only. Scale: %

Asked: Name the reported Residue (%) after culturing for 30 min value associated with the compound CCOCCn1c(Cl)c(/C=N/NC(=O)c2cc3cc(C)ccc3o2)c2cc(OC)ccc21 [Example 8]
Given back: 85.58

Asked: # input compound: O=C1CC2(CCCC2)CC(=O)N1CCCCN1CCN(c2ncccn2)CC1 [Buspirone, buspirone, reference compound] ; wanted: its Residue (%) after culturing for 30 min
Given back: 93.08

Asked: Field request: Residue (%) after culturing for 30 min | item: Cc1ccc2oc(C(=O)N/N=C/c3c(Cl)n(C)c4ccccc34)cc2c1 [Example 2]
Given back: 41.45

Asked: Given the entry CCOC(=O)Cn1c(Cl)c(/C=N/NC(=O)c2cc3cc(C)ccc3o2)c2ccccc21 [Example 3] , report its measured Residue (%) after culturing for 30 min.
Given back: 8.53

Asked: # query: Residue (%) after culturing for 30 min of entry CCOCCn1c(Cl)c(/C=N/NC(=O)c2cc3cc(OC)ccc3o2)c2cc(OC)ccc21 [Example 15]
Given back: 94.95

Asked: Find the recorded Residue (%) after culturing for 30 min belonging to CCOCCn1c(Cl)c(/C=N/NC(=O)c2cc3cc(C)ccc3o2)c2ccccc21 [Example 4] and report it.
Given back: 69.63

---

Assignment: determine reported pIC50 for the given compounds.
# System: K562/ADR
# procedure text: Anti-proliferative activity test in cancer cells exhibiting multidrug resistance (MTT)
# Format: cell-based
# assay conditions: Homo sapiens, 96 h; K562/ADR (multidrug-resistant); 4 days; MTT
Keep it numeric: pIC50 is minus log10 of the concentration in mol/L.

Asked: I have this compound here, CCOCCn1c(Cl)c(/C=N/NC(=O)c2cc3cc(C)ccc3o2)c2ccccc21 [Example 4] , and I need its recorded pIC50.
Given back: 6.70

Asked: Which value of pIC50 has been reported for COc1cccc2c1C(=O)c1c(O)c3c(c(O)c1C2=O)C[C@@](O)(C(=O)CO)C[C@@H]3O[C@H]1C[C@H](N)[C@H](O)[C@H](C)O1 [Doxorubicin, doxorubicin] in the records?
Given back: 5.66

Asked: Which value of pIC50 has been reported for CC[C@]1(O)C[C@@H]2CN(CCc3c([nH]c4ccccc34)[C@@](C(=O)OC)(c3cc4c(cc3OC)N(C)[C@H]3[C@@](O)(C(=O)OC)[C@H](OC(C)=O)[C@]5(CC)C=CCN6CC[C@]43[C@@H]65)C2)C1 [Vinblastine, vinblastine] in the records?
Given back: 6.57

Asked: Any idea what pIC50 was measured for CC(=O)O[C@H]1C(=O)[C@@]2(C)[C@H]([C@H](OC(=O)c3ccccc3)[C@]3(O)C[C@H](OC(=O)[C@H](O)[C@@H](NC(=O)c4ccccc4)c4ccccc4)C(C)=C1C3(C)C)[C@]1(OC(C)=O)CO[C@@H]1C[C@@H]2O [Taxol, taxol] ?
Given back: 6.15

From: patent US12612389B2
